The reported measurements were obtained from ChEMBL document CHEMBL5608189.

Protocol summary: Hemolytic activity in rabbit red blood cells assessed as hemolytic rate at 128 times MIC measured after 1 hr by absorbance based method relative to control
Format: toxicity, cell-based, Oryctolagus cuniculus, Erythrocyte
Details: rabbit red blood cells (erythrocytes), read-out: Activity
Each item that follows carries a reported hemolysis at 1 h, 128 times MIC.

- Entry smiles: "CC1(C)CC[C@]2(C(=O)NS(=O)(=O)c3ccc(Cl)cc3)CC[C@]3(C)C(=CC[C@@H]4[C@@]5(C)Cc6c([nH]c7c(C(=O)O)cccc67)C(C)(C)[C@@H]5CC[C@]43C)[C@@H]2C1"
  hemolysis at 1 h, 128 times MIC: "< 5%"
- Entry smiles: "CC(=O)c1cccc2c3c([nH]c12)C(C)(C)[C@@H]1CC[C@]2(C)[C@H](CC=C4[C@@H]5CC(C)(C)CC[C@]5(C(=O)NS(=O)(=O)c5ccccc5)CC[C@]42C)[C@@]1(C)C3"
  hemolysis at 1 h, 128 times MIC: "< 5%"
- Entry smiles: "Cc1ccc(S(=O)(=O)NC(=O)[C@]23CCC(C)(C)C[C@H]2C2=CC[C@@H]4[C@@]5(C)Cc6c([nH]c7c(C(=O)O)cccc67)C(C)(C)[C@@H]5CC[C@@]4(C)[C@]2(C)CC3)cc1"
  hemolysis at 1 h, 128 times MIC: "< 5%"

----------
Tested on: Staphylococcus aureus
Protocol summary: Antibacterial activity against methicillin-resistant Staphylococcus aureus measured after 24 hrs by susceptibility assay
Format: functional
Endpoint: MIC (µM)

- Entry smiles: "CC1(C)CC[C@]2(C(=O)NS(=O)(=O)c3ccccc3)CC[C@]3(C)C(=CC[C@@H]4[C@@]5(C)Cc6c([nH]c7ccc(Br)cc67)C(C)(C)[C@@H]5CC[C@]43C)[C@@H]2C1"
  Value relation sign: ">"
  Numeric result: 256
- Entry smiles: "COc1ccc(S(=O)(=O)NC(=O)[C@]23CCC(C)(C)C[C@H]2C2=CC[C@@H]4[C@@]5(C)Cc6c([nH]c7ccc(C(=O)O)cc67)C(C)(C)[C@@H]5CC[C@@]4(C)[C@]2(C)CC3)cc1"
  Value relation sign: "="
  Numeric result: 2
- Entry smiles: "CC1(C)CC[C@]2(C(=O)Nc3ccc(-c4ccccc4)cc3)CC[C@]3(C)C(=CC[C@@H]4[C@@]5(C)CCC(=O)C(C)(C)[C@@H]5CC[C@]43C)[C@@H]2C1"
  Value relation sign: ">"
  Numeric result: 256
- Entry smiles: "CC1(C)CC[C@]2(C(=O)Nc3ccc(-c4ccccc4)cc3)CC[C@]3(C)C(=CC[C@@H]4[C@@]5(C)Cc6c([nH]c7ccc(C(=O)O)cc67)C(C)(C)[C@@H]5CC[C@]43C)[C@@H]2C1"
  Value relation sign: ">"
  Numeric result: 256
- Entry smiles: "CC1(C)CC[C@]2(C(=O)O)CC[C@]3(C)C(=CC[C@@H]4[C@@]5(C)CC[C@H](O)C(C)(C)[C@@H]5CC[C@]43C)[C@@H]2C1"
  Value relation sign: "="
  Numeric result: 32

----------
Tested on: Staphylococcus aureus
Protocol summary: Antibacterial activity against Staphylococcus aureus ATCC 6538 measured after 24 hrs by susceptibility assay
Format: functional
Each item that follows carries a reported MIC.

- Entry smiles: "CC1(C)CC[C@]2(C(=O)NS(=O)(=O)c3ccc(Cl)cc3)CC[C@]3(C)C(=CC[C@@H]4[C@@]5(C)CCC(=O)C(C)(C)[C@@H]5CC[C@]43C)[C@@H]2C1"
  Measurement target: "Staphylococcus aureus"
  Value relation sign: "="
  MIC / µM: 4
- Entry smiles: "CN1CCN(C(=O)[C@]23CCC(C)(C)C[C@H]2C2=CC[C@@H]4[C@@]5(C)Cc6c([nH]c7ccc(C(=O)O)cc67)C(C)(C)[C@@H]5CC[C@@]4(C)[C@]2(C)CC3)CC1"
  Measurement target: "Staphylococcus aureus"
  Value relation sign: ">"
  MIC / µM: 256
- Entry smiles: "COc1ccc(S(=O)(=O)NC(=O)[C@]23CCC(C)(C)C[C@H]2C2=CC[C@@H]4[C@@]5(C)Cc6c([nH]c7ccc(C(=O)O)cc67)C(C)(C)[C@@H]5CC[C@@]4(C)[C@]2(C)CC3)cc1"
  Measurement target: "Staphylococcus aureus"
  Value relation sign: "="
  MIC / µM: 0.5
